# Test system: HOP-62
# MEASUREMENT CONTEXT: read-out: Median Lethal Concentration (LC50); Non-Small Cell Lung Cancer, HOP-62; 48 hours, SRB assay
PARAMETER: CC50 (µM)
Output spec: scalar in µM, unitless text.

Item: O=C1C(=Cc2ccccc2O)COCC1=Cc1ccccc1O Test system: HOP-62 Read-out: CC50 Value: ? 37.2

====

# Tested on: A549
# ASSAY EXPLANATION: cells
# MEASUREMENT CONTEXT: Homo sapiens, A549, 48 h, read-out: Median Lethal Concentration (LC50)
PARAMETER: CC50

These recorded examples may help you get a feel for the data.
CC(=O)O.O=C1C(=Cc2ccccc2F)CNCC1=Cc1ccccc1F [EF24]    89.4 µM
COc1cc(/C=C/C(=O)CC(=O)/C=C/c2ccc(O)c(OC)c2)ccc1O [Curcumin]    79.4 µM
O=C1C(=Cc2ccccc2O)CCCC1=Cc1ccccc1O [EF4]    > 100 µM
CC1(/C=C/c2ccccc2O)C=Cc2ccccc2O1 (stereo not drawn) [EF7]    53.3 µM
O=C(C=Cc1ccc(F)cc1F)C=Cc1ccc(F)cc1F [EF9]    71 µM

Please examine the following record next.
Reported CC50 for OC(CCc1ccc(F)cc1F)CCc1ccc(F)cc1F [EF19, 1,5-Bis(2,4-difluorophenyl)-pentan-3-ol] : what is it? 65.8 µM

====

The following compounds are shown together with reported CC50 values.
# Tested on: HCC-2998
# ASSAY EXPLANATION: cells
# MEASUREMENT CONTEXT: Homo sapiens, HCC 2998, 48 h, read-out: Median Lethal Concentration (LC50)
Numeric answer only, unit µM assumed.

CC(=O)O.O=C1C(=Cc2ccccc2F)CNCC1=Cc1ccccc1F    5
OC(CCc1ccc(F)cc1F)CCc1ccc(F)cc1F    56.1
O=C1C(=Cc2ccccc2O)CCCC1=Cc1ccccc1O    5.9
CC1(/C=C/c2ccccc2O)C=Cc2ccccc2O1 (stereo not drawn)    56.8
O=C(C=Cc1ccc(F)cc1F)C=Cc1ccc(F)cc1F    32.2

// moving on: another record for CC50
API: value(readout=CC50, system=HCC-2998) for record COc1cc(/C=C/C(=O)CC(=O)/C=C/c2ccc(O)c(OC)c2)ccc1O 31.6

====

# System: KM12
# MEASUREMENT CONTEXT: read-out: Median Lethal Concentration (LC50); Colon Cancer, KM12; 48 hours, SRB assay
PARAMETER: CC50 (µM)
Unit µM implied. Number only.

// query CC50 value for entry O=C1C(=Cc2ccccc2O)COCC1=Cc1ccccc1O [EF25] 10.7

====

# System: HS 578T
# ASSAY EXPLANATION: cells
# MEASUREMENT CONTEXT: Homo sapiens, 48 h, read-out: Median Growth Inhibitory Concentration (GI50)
PARAMETER: GI50 (µM)
# value in µM; strip the unit string

CC1(/C=C/c2ccccc2O)C=Cc2ccccc2O1 (stereo not drawn)    22.4
CC(=O)O.O=C1C(=Cc2ccccc2F)CNCC1=Cc1ccccc1F    1
COc1cc(/C=C/C(=O)CC(=O)/C=C/c2ccc(O)c(OC)c2)ccc1O    10
OC(CCc1ccc(F)cc1F)CCc1ccc(F)cc1F    21.9
O=C(C=Cc1ccc(F)cc1F)C=Cc1ccc(F)cc1F    9.9

Okay, now this molecule:
Sample O=C1C(=Cc2ccccc2O)CCCC1=Cc1ccccc1O — what was its GI50? 5.1

====

# Tested on: A498
# ASSAY EXPLANATION: cells
# MEASUREMENT CONTEXT: Homo sapiens, A498, 48 h, read-out: Median Lethal Concentration (LC50)
PARAMETER: log10 CC50 (log10 of the value in µM)
Lab note - CC50 converted to log10 from values in µM.

Worked set:
O=C1C(=Cc2ccccc2O)CCCC1=Cc1ccccc1O    1.21
COc1cc(/C=C/C(=O)CC(=O)/C=C/c2ccc(O)c(OC)c2)ccc1O    1.80
OC(CCc1ccc(F)cc1F)CCc1ccc(F)cc1F    1.74

Given the molecule CC(=O)O.O=C1C(=Cc2ccccc2F)CNCC1=Cc1ccccc1F , what is its reported log10 CC50? 0.53

log10 CC50 lookup needed for O=C(C=Cc1ccc(F)cc1F)C=Cc1ccc(F)cc1F , thanks. 1.36

So what's the measured log10 CC50 for this one? CC1(/C=C/c2ccccc2O)C=Cc2ccccc2O1 (stereo not drawn) 1.75

====

# Tested on: UO-31
# ASSAY EXPLANATION: cells
# MEASUREMENT CONTEXT: Homo sapiens, UO-31, 48 h, read-out: Median Growth Inhibitory Concentration (GI50)
PARAMETER: log10 of GI50 (log10 of the value in µM)
In our notation, the value equals log10 of GI50 in µM.

OC(CCc1ccc(F)cc1F)CCc1ccc(F)cc1F    1.26
O=C(C=Cc1ccc(F)cc1F)C=Cc1ccc(F)cc1F    0.98
O=C1C(=Cc2ccccc2O)CCCC1=Cc1ccccc1O    0.20
CC(=O)O.O=C1C(=Cc2ccccc2F)CNCC1=Cc1ccccc1F    -0.22
COc1cc(/C=C/C(=O)CC(=O)/C=C/c2ccc(O)c(OC)c2)ccc1O    1.10

Okay, next one:
Which log10 of GI50 reading was recorded for the molecule CC1(/C=C/c2ccccc2O)C=Cc2ccccc2O1 (stereo not drawn) ? 1.13

====

# Test system: OVCAR-5
# MEASUREMENT CONTEXT: read-out: Median Lethal Concentration (LC50); Ovarian Cancer, OVCAR-5; 48 hours, SRB assay
PARAMETER: CC50 (µM)
Write the value in µM as a bare number.

Would you kindly share the measured CC50 for O=C1C(=Cc2ccccc2O)COCC1=Cc1ccccc1O [EF25] ? 8.4

====

# Test system: IGROV1
# MEASUREMENT CONTEXT: read-out: Median Lethal Concentration (LC50); Ovarian Cancer, IGROV1; 48 hours, SRB assay
PARAMETER: CC50 (µM)
Only the number, expressed in µM, is required.

Given the entry O=C1C(=Cc2ccccc2O)COCC1=Cc1ccccc1O , report its measured CC50. 14.5

====

# Test system: BT-549
# MEASUREMENT CONTEXT: read-out: Median Lethal Concentration (LC50); Breast Cancer, BT-549; 48 hours, SRB assay
PARAMETER: CC50 (µM)
// note: answer is a bare numeric in µM

For the compound O=C1C(=Cc2ccccc2O)COCC1=Cc1ccccc1O , what CC50 is on record? 13.6

====

# Test system: 786-0
# MEASUREMENT CONTEXT: read-out: Median Lethal Concentration (LC50); Renal Cancer, 786-O; 48 hours, SRB assay
PARAMETER: CC50
Give the figure together with its unit, number first.

Fill in the recorded CC50 for this compound, with 786-0 as test system: O=C1C(=Cc2ccccc2O)COCC1=Cc1ccccc1O 32.6 µM

====

// CC50 lookup, one value per entry
# Tested on: MDA-N
# ASSAY EXPLANATION: cells
# MEASUREMENT CONTEXT: Homo sapiens, 48 h, read-out: Median Lethal Concentration (LC50)
Express the result in µM but write the number alone.

# example entries with known answers
OC(CCc1ccc(F)cc1F)CCc1ccc(F)cc1F [EF19, 1,5-Bis(2,4-difluorophenyl)-pentan-3-ol]    55.2
COc1cc(/C=C/C(=O)CC(=O)/C=C/c2ccc(O)c(OC)c2)ccc1O [Curcumin]    31.6
CC1(/C=C/c2ccccc2O)C=Cc2ccccc2O1 (stereo not drawn) [EF7]    56.9

Can you look up the measured CC50 of O=C(C=Cc1ccc(F)cc1F)C=Cc1ccc(F)cc1F [EF9] for me? 33.2

# get_value(readout='CC50', item= CC(=O)O.O=C1C(=Cc2ccccc2F)CNCC1=Cc1ccccc1F [EF24] ) 5.6

What value of CC50 has been reported for the following molecule? O=C1C(=Cc2ccccc2O)CCCC1=Cc1ccccc1O [EF4] 20.2

====

# Test system: SN12C
# MEASUREMENT CONTEXT: read-out: Median Lethal Concentration (LC50), Renal Cancer, 48 hours, SRB assay
PARAMETER: CC50 (µM)
Express your answer in µM, writing the number without its unit.

For O=C1C(=Cc2ccccc2O)COCC1=Cc1ccccc1O [EF25] , what is its reported CC50? 12

====

# Test system: MALME-3M
# MEASUREMENT CONTEXT: read-out: Median Lethal Concentration (LC50), Melanoma, 48 hours, SRB assay
PARAMETER: CC50 (µM)
The reply should be a number in µM, with the unit left off.

I have this compound here, O=C1C(=Cc2ccccc2O)COCC1=Cc1ccccc1O , and I need its recorded CC50. 19.3

====

# Test system: HL-60 (TB)
# ASSAY EXPLANATION: cells
# MEASUREMENT CONTEXT: Homo sapiens, HL-60, 48 h, read-out: Median Lethal Concentration (LC50)
PARAMETER: CC50 (µM)
Write the value in µM as a bare number.

# example entries with known answers
OC(CCc1ccc(F)cc1F)CCc1ccc(F)cc1F [EF19, 1,5-Bis(2,4-difluorophenyl)-pentan-3-ol]    66.8
O=C1C(=Cc2ccccc2O)CCCC1=Cc1ccccc1O [EF4]    53.5

For the compound shown here, CC1(/C=C/c2ccccc2O)C=Cc2ccccc2O1 (stereo not drawn) [EF7] , give the reported CC50. 76
